Tested on: Plasmodium falciparum
Experiment: Inhibition of Plasmodium falciparum protein farnesyltransferase at 5 nM by scintillation proximity assay
Experimental Readout: inhibition (%)
Give bare numbers, in %.

In the examples that follow, each entry is paired with its recorded inhibition.
molecule="Cn1cnc(S(=O)(=O)N(Cc2ccc(S(C)(=O)=O)cc2Cl)C2Cc3cc(C#N)ccc3N(Cc3cncn3C)C2)c1 (configuration not stated)" experimental_readout=inhibition number=98
molecule="Cn1cnc(S(=O)(=O)N(CCCCON2C(=O)c3ccccc3C2=O)C2Cc3cc(C#N)ccc3N(Cc3cncn3C)C2)c1 (configuration not stated)" experimental_readout=inhibition number=96
molecule="CN(C)CCCN(C1Cc2cc(C#N)ccc2N(Cc2cncn2C)C1)S(=O)(=O)c1cn(C)cn1 (configuration not stated)" experimental_readout=inhibition number=9
molecule="CC(C)NC(=O)c1ccc2c(c1)CC(N(CC(=O)NC(C)(C)C)S(=O)(=O)c1cn(C)cn1)CN2Cc1cncn1C (configuration not stated)" experimental_readout=inhibition number=7
molecule="COC(=O)NCCN(C1Cc2cc(C#N)ccc2N(Cc2cncn2C)C1)S(=O)(=O)c1ccccn1 (configuration not stated)" experimental_readout=inhibition number=47
molecule="Cn1cncc1CN1CC(N(CC(=O)NC(C)(C)C)S(=O)(=O)CCN2C(=O)c3ccccc3C2=O)Cc2cc(C#N)ccc21 (configuration not stated)" experimental_readout=inhibition number=21
molecule="Cc1noc(C)c1CN(C1Cc2cc(C#N)ccc2N(Cc2cncn2C)C1)S(=O)(=O)c1ccccn1 (configuration not stated)" experimental_readout=inhibition number=93
molecule="Cn1cncc1CN1CC(N(Cc2cccc(C(=O)O)n2)S(=O)(=O)c2ccccn2)Cc2cc(C#N)ccc21 (configuration not stated)" experimental_readout=inhibition number=81
molecule="Cn1cnc(CN2CC(N(CC3CCN(C(=O)OC(C)(C)C)CC3)S(=O)(=O)c3ccccn3)Cc3cc(-c4ccccc4)ccc32)c1 (configuration not stated)" experimental_readout=inhibition number=15
molecule="Cn1cncc1CN1CC(N(CCCCNC(=O)OC(C)(C)C)S(=O)(=O)c2ccccn2)Cc2cc(C#N)ccc21 (configuration not stated)" experimental_readout=inhibition number=80

# return inhibition for each item in the list
1. CCCC(=O)N1CCC(CN(C2Cc3cc(C#N)ccc3N(Cc3cncn3C)C2)S(=O)(=O)c2ccccn2)CC1 (configuration not stated)
2. Cn1cncc1CN1CC(N(CCNC(=O)OC(C)(C)C)S(=O)(=O)c2ccccn2)Cc2cc(C#N)ccc21 (configuration not stated)
3. Cn1cnc(S(=O)(=O)N(CC(=O)NC(C)(C)C)C2Cc3cc(C(=O)NC(C)(C)C)ccc3N(Cc3cncn3C)C2)c1 (configuration not stated)
4. Cn1cncc1CN1CC(N(CC2CCN(S(C)(=O)=O)CC2)S(=O)(=O)c2ccccn2)Cc2cc(C#N)ccc21 (configuration not stated)

## Output
1. 12
2. 48
3. 0
4. 45

# return inhibition for each item in the list
1. CCC(=O)N1CCC(CN(C2Cc3cc(C#N)ccc3N(Cc3cncn3C)C2)S(=O)(=O)c2ccccn2)CC1 (configuration not stated)
2. COC(=O)c1cccc(CN(C2Cc3cc(C#N)ccc3N(Cc3cncn3C)C2)S(=O)(=O)c2ccccn2)n1 (configuration not stated)
3. Cn1cncc1CN1CC(N(CC2CCN(C(=O)c3ccco3)CC2)S(=O)(=O)c2ccccn2)Cc2cc(C#N)ccc21 (configuration not stated)
4. Cn1cnc(CN2CC(N(CC(=O)NC(C)(C)C)S(=O)(=O)c3ccccn3)Cc3cc(-c4ccccc4)ccc32)c1 (configuration not stated)
5. Cn1cnc(S(=O)(=O)N(Cc2ccccc2F)C2Cc3cc(C#N)ccc3N(Cc3cncn3C)C2)c1 (stereo in doubt; 110)
6. Cn1cnc(CN2CC(N(CC3CCN(C(=O)OC(C)(C)C)CC3)S(=O)(=O)c3cn(C)cn3)Cc3cc(-c4ccccc4)ccc32)c1 (configuration not stated)
7. COc1ccc(S(=O)(=O)N(Cc2ccccc2F)C2Cc3cc(C#N)ccc3N(Cc3cncn3C)C2)cc1 (configuration not stated)

## Output
[20, 94, 51, 6, 99, 10, 22]

# return inhibition for each item in the list
1. Cn1cnc(S(=O)(=O)N(Cc2ccc(C(F)(F)F)o2)C2Cc3cc(C#N)ccc3N(Cc3cncn3C)C2)c1 (configuration not stated)
2. COC(=O)N1CCC(CN(C2Cc3cc(C#N)ccc3N(Cc3cccnc3)C2)S(=O)(=O)c2ccccn2)CC1 (configuration not stated)
3. Cn1cncc1CN1CC(N(CC2CCN(C(=O)CC(C)(C)C)CC2)S(=O)(=O)c2ccccn2)Cc2cc(C#N)ccc21 (configuration not stated)
4. Cn1cnc(S(=O)(=O)N(CCNC(=O)OC(C)(C)C)C2Cc3cc(C#N)ccc3N(Cc3cncn3C)C2)c1 (configuration not stated)
5. Cn1cncc1CN1CC(N(Cc2cccc(-n3cccn3)c2)S(=O)(=O)c2ccccn2)Cc2cc(C#N)ccc21 (configuration not stated)
6. COC(=O)N(C)CCCN(C1Cc2cc(C#N)ccc2N(Cc2cncn2C)C1)S(=O)(=O)c1ccccn1 (configuration not stated)

## Output
[96, 12, 36, 90, 52, 68]

# return inhibition for each item in the list
1. Cn1cnc(CN2CC(N(CCS(C)(=O)=O)S(=O)(=O)c3cn(C)cn3)Cc3cc(-c4ccccc4)ccc32)c1 (configuration not stated)
2. Cn1cncc1CN1CC(N(Cc2ccc(F)cc2)S(=O)(=O)c2ccccn2)Cc2cc(C#N)ccc21 (configuration not stated)
3. Cn1cncc1CN1CC(N(Cc2ccc(S(C)(=O)=O)cc2)S(=O)(=O)c2ccccc2)Cc2cc(C#N)ccc21 (configuration not stated)
4. COC(=O)N1CCC(CN(C2Cc3cc(C#N)ccc3N(Cc3cncn3C)C2)S(=O)(=O)c2ccc3c(c2)OCCCO3)CC1 (configuration not stated)
5. CCS(=O)(=O)N(Cc1ccccc1F)C1Cc2cc(C#N)ccc2N(Cc2cncn2C)C1 (configuration not stated)

## Output
[91, 50, 91, 81, 11]
